target: Adenosine receptor A2a (Homo sapiens, UniProt P29274)
Sequence (P29274 whole entry): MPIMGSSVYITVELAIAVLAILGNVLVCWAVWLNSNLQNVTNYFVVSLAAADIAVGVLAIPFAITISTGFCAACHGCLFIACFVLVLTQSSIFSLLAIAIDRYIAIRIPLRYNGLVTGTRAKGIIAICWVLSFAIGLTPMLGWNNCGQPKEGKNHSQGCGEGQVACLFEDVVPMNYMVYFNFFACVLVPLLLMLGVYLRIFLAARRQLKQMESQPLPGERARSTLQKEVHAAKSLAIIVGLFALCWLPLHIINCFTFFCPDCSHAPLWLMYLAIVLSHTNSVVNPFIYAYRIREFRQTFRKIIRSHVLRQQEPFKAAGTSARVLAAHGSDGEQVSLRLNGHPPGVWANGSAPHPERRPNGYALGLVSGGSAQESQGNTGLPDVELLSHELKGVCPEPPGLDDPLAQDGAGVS
pKi: −log10 of the molar value.
measurement name: pKi

{"line notation": "CC(C)COc1ccc(-c2c(C#N)c(N)nc(SCC(N)=O)c2C#N)cc1", "quantitative readout": 6.51}
{"line notation": "N#Cc1c(N)nc(SCc2cccnc2)c(C#N)c1-c1ccc(OCC2CC2)cc1", "quantitative readout": 6.37}
{"line notation": "N#Cc1c(N)nc(SCc2ncc[nH]2)c(C#N)c1-c1ccc(OCC2CC2)cc1", "quantitative readout": 6.12}
{"line notation": "CC(=O)Nc1ccc(-c2c(C#N)c(N)nc(SCC(N)=O)c2C#N)cc1", "quantitative readout": 6.24}

* * *

# key: entry, value: EC50
target: Adenosine receptor A2b (Homo sapiens, UniProt P29275); assay: Agonist activity at human adenosine A2B receptor expressed in CHO cell membranes assessed as induction of cAMP accumulation by AlphaScreen assay
Sequence (P29275 whole entry): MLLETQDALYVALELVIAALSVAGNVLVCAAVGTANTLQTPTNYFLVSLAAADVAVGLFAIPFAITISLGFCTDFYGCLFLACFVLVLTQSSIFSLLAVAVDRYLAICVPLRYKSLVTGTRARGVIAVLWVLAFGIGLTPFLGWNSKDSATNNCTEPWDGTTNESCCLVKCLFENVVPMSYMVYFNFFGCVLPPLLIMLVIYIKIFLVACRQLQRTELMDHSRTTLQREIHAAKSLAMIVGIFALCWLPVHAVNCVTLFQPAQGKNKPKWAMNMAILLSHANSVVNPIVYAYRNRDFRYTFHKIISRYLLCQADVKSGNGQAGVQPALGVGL

{"line notation": "CNC(=O)CSc1nc(N)c(C#N)c(-c2ccc(OCC3CC3)cc2)c1C#N", "EC50 (nM)": 94}
{"line notation": "N#Cc1c(N)nc(SCc2cnc[nH]2)c(C#N)c1-c1ccc(OCC2CC2)cc1", "EC50 (nM)": 139}
{"line notation": "N#Cc1c(N)nc(SCc2ccn[nH]2)c(C#N)c1-c1ccc(OCC2CC2)cc1", "EC50 (nM)": 84}
{"line notation": "CC(=O)Nc1ccc(-c2c(C#N)c(N)nc(SCC(N)=O)c2C#N)cc1", "EC50 (nM)": 164}

This collection of values is drawn from ChEMBL document CHEMBL4196073.
